Test system: Escherichia coli TOP10;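 further: peptides expressed intracellularly from a pBAD plasmid library in pooled LB shake-flask culture, induced with 0.3% L-arabinose, DNA abundance read by NGS, three biological replicates, DESeq2 with apeglm shrinkage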
test description: shrunken log2 fold change of peptide-encoding DNA abundance (4.5 h post-induction vs induction); higher = less antimicrobial activity (less host growth inhibition)
measurement parameters: time post-induction: 4.5 h; library: site-saturation at positions 5, 18, 19, 20
Documented shrunken log2 fold change across a set of sequences
Keep it simple and answer with nothing but the number.

Illustrative cases are given below, each with its answer.
RRIRERPPRLPRPRPRPYPYPRP : -0.372
RRIRDRPPRLPRPRPRPRMVPRP : -0.177
RRIRNRPPRLPRPRPRPCHDPRP : -0.0458
RRIRIRPPRLPRPRPRPKINPRP : -0.881
RRIRFRPPRLPRPRPRPIYHPRP : -0.701

[ask] Tell me its shrunken log2 fold change given RRIRIRPPRLPRPRPRPDDSPRP as the entry.
[reply] -0.267

[ask] Tell me its shrunken log2 fold change given RRIRGRPPRLPRPRPRPEHQPRP as the entry.
[reply] 0.529

[ask] Tell me its shrunken log2 fold change given RRIRHRPPRLPRPRPRPIWRPRP as the entry.
[reply] 0.139

[ask] Tell me its shrunken log2 fold change given RRIRQRPPRLPRPRPRPHANPRP as the entry.
[reply] -0.671

[ask] Tell me its shrunken log2 fold change given RRIRKRPPRLPRPRPRPTSQPRP as the entry.
[reply] 0.149

[ask] Tell me its shrunken log2 fold change given RRIRPRPPRLPRPRPRPQWDPRP as the entry.
[reply] -0.355

[ask] Tell me its shrunken log2 fold change given RRIRVRPPRLPRPRPRPLTEPRP as the entry.
[reply] -0.503

[ask] Tell me its shrunken log2 fold change given RRIRLRPPRLPRPRPRPCTEPRP as the entry.
[reply] -0.0105

[ask] Tell me its shrunken log2 fold change given RRIRIRPPRLPRPRPRPNEDPRP as the entry.
[reply] -0.488

[ask] Tell me its shrunken log2 fold change given RRIRTRPPRLPRPRPRPRAFPRP as the entry.
[reply] 0.184

[ask] Tell me its shrunken log2 fold change given RRIRHRPPRLPRPRPRPFNGPRP as the entry.
[reply] -0.118

[ask] Tell me its shrunken log2 fold change given RRIRNRPPRLPRPRPRPKINPRP as the entry.
[reply] -0.387

[ask] Tell me its shrunken log2 fold change given RRIRARPPRLPRPRPRPCECPRP as the entry.
[reply] 0.633

[ask] Tell me its shrunken log2 fold change given RRIRLRPPRLPRPRPRPQASPRP as the entry.
[reply] 0.0594

[ask] Tell me its shrunken log2 fold change given RRIRIRPPRLPRPRPRPPWYPRP as the entry.
[reply] -0.394

[ask] Tell me its shrunken log2 fold change given RRIRQRPPRLPRPRPRPELPPRP as the entry.
[reply] -0.0769

[ask] Tell me its shrunken log2 fold change given RRIRHRPPRLPRPRPRPCFVPRP as the entry.
[reply] 0.0216

[ask] Tell me its shrunken log2 fold change given RRIRGRPPRLPRPRPRPMPCPRP as the entry.
[reply] 0.104
